Target: OX2 (Homo sapiens)
Sequence (O43614 1-444): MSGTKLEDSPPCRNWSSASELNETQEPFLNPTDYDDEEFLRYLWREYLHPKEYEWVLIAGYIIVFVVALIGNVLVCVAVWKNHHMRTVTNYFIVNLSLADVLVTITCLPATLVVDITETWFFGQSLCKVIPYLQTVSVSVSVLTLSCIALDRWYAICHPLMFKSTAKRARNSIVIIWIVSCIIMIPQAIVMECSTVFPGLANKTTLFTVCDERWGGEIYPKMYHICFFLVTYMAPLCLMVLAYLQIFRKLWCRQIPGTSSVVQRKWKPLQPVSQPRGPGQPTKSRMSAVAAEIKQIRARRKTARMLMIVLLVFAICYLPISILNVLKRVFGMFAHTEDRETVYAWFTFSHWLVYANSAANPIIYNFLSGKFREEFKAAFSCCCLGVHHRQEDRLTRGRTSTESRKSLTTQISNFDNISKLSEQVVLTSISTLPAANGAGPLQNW
Test: Measurement of antagonism (PLAP assay), OX2
Type: cell-based
Set-up: expressed in transfected cells; host or cells: HEK-293 cells, expression vector pBabeCLIH
Recorded metric: Ki (nM)
All answers are understood in nM, so give the number only.

# Ki (compound: Cc1ncc(OC[C@@]2(c3ccccc3)C[C@H]2C(=O)Nc2cc(C)c(F)cn2)c(C)n1 ) is 1.2

# Ki (compound: Cc1ncc(OC[C@@]2(c3cccc(F)c3)C[C@H]2C(=O)Nc2cc(C)c(F)cn2)c(C)n1 ) is 0.085

# Ki (compound: Cc1ncc(OC[C@@]2(c3ccccc3)C[C@H]2C(=O)Nc2ccc(F)cn2)c(C)n1 ) is 10

###

Please go through the items and note down their pKi.
Biological target: OX2 (Homo sapiens)
Sequence (O43614 1-444): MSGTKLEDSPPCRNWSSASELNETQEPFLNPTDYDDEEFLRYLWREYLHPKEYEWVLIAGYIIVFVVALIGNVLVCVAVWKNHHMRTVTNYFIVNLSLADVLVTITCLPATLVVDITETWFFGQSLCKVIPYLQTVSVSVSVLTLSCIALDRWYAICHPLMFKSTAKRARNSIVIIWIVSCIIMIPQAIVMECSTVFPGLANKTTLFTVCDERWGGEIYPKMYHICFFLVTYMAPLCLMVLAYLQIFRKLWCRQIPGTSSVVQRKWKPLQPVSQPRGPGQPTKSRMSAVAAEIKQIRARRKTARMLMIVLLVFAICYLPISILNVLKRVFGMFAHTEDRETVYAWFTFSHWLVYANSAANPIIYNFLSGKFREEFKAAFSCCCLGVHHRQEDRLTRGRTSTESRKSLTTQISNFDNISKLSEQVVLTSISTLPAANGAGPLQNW
Assay: Measurement of antagonism (PLAP assay), OX2
Assay type: cell-based
Parameters: expressed in transfected cells; host or cells: HEK-293 cells, expression vector pBabeCLIH
Conditions: HEK-293 cells expressing human OX2, 1 nM human OX-A, IC50 converted by Cheng-Prusoff equation; read-out: OX2 (Ki)
Quick note: pKi means taking -log10 of the concentration in moles per liter.

# pKi (compound: COc1cccc([C@]2(COc3cnc(C)nc3C)C[C@H]2C(=O)Nc2ccc(F)cn2)c1 ) is 8.47

# pKi (compound: Cc1ncc(OC[C@@]2(c3ccc(F)cc3)C[C@H]2C(=O)Nc2ccc(F)cn2)c(C)n1 ) is 8.03

# pKi (compound: Cc1ncc(OC[C@@]2(c3ccccc3)C[C@H]2C(=O)Nc2cccnc2)c(C)n1 ) is 7.47

# pKi (compound: CCc1nc(C)ncc1OC[C@@]1(c2ccccc2)C[C@H]1C(=O)Nc1ccc(F)cn1 ) is 9.22

# pKi (compound: Cc1ncc(OC[C@@]2(c3ccc(F)c(F)c3)C[C@H]2C(=O)Nc2cc(C)c(F)cn2)c(C)n1 ) is 10.06

# pKi (compound: COCc1nc(C)ncc1OC[C@@]1(c2ccccc2)C[C@H]1C(=O)Nc1ccc(Cl)cn1 ) is 8.77

# pKi (compound: Cc1ncc(OC[C@@]2(c3ccccc3)C[C@H]2C(=O)Nc2cc(C)c(Cl)cn2)c(C)n1 ) is 9.35

# pKi (compound: CCc1nc(C)ncc1OC[C@@]1(c2ccccc2)C[C@H]1C(=O)Nc1ccc(Cl)cn1 ) is 9.52

# pKi (compound: Cc1ncc(OC[C@@]2(c3ccccc3)C[C@H]2C(=O)Nc2ccc(F)c(C#N)c2)c(C)n1 ) is 9.40

# pKi (compound: Cc1ncc(OC[C@@]2(c3cc(F)cc(F)c3)C[C@H]2C(=O)Nc2cc(C)c(F)cn2)c(C)n1 ) is 10.22

# pKi (compound: Cc1ncc(OC[C@@]2(c3ccccc3)C[C@H]2C(=O)Nc2ccccc2)c(C)n1 ) is 8.20

# pKi (compound: CCc1nc(C)ncc1OC[C@@]1(c2ccccc2)C[C@H]1C(=O)Nc1ccc(C#N)cn1 ) is 8.24

# pKi (compound: COc1cncc(NC(=O)[C@@H]2C[C@@]2(COc2cnc(C)nc2C)c2ccccc2)c1 ) is 7.59

# pKi (compound: Cc1ncc(OC[C@@]2(c3ccc(Cl)cc3)C[C@H]2C(=O)Nc2ccc(F)cn2)c(C)n1 ) is 8.54

# pKi (compound: Cc1ncc(OC[C@@]2(c3ccccc3)C[C@H]2C(=O)Nc2ccc(Cl)cn2)c(C)n1 ) is 8.27
